FYI, the data here is from patent US20090148512A1.

tested on: MRSA; assay: In vitro activity (MIC) against MRSA strains collected in 2005; type: cell-based, Staphylococcus aureus; details: Staphylococcus aureus, MRSA; North America and Europe 2005, 1,644 strains; read-out: MIC90
measured-attribute: MIC90

- entry-smiles: "O=C(N[C@H](CO)[C@H](O)c1ccc([N+](=O)[O-])cc1)C(Cl)Cl"
  meas-value: "8 µg/mL"
- entry-smiles: "CC[C@H]1OC(=O)[C@H](C)[C@@H](O[C@H]2C[C@@](C)(OC)[C@@H](O)[C@H](C)O2)[C@H](C)[C@@H](O[C@@H]2O[C@H](C)C[C@H](N(C)C)[C@H]2O)[C@](C)(O)C[C@@H](C)C(=O)[C@H](C)[C@@H](O)[C@]1(C)O"
  meas-value: "> 8 µg/mL"
- entry-smiles: "CN[C@H](CC(C)C)C(=O)N[C@H]1C(=O)N[C@@H](CC(N)=O)C(=O)N[C@H]2C(=O)N[C@H]3C(=O)N[C@H](C(=O)N[C@H](C(=O)O)c4cc(O)cc(O)c4-c4cc3ccc4O)[C@H](O)c3ccc(c(Cl)c3)Oc3cc2cc(c3O[C@@H]2O[C@H](CO)[C@@H](O)[C@H](O)[C@H]2O[C@H]2C[C@](C)(N)[C@H](O)[C@H](C)O2)Oc2ccc(cc2Cl)[C@H]1O"
  meas-value: "1 µg/mL"
- entry-smiles: "CN(C)[C@@H]1C(O)=C(C(N)=O)C(=O)[C@@]2(O)C(O)=C3C(=O)c4c(O)cccc4[C@@](C)(O)[C@H]3C[C@@H]12"
  meas-value: "> 8 µg/mL"
- entry-smiles: "CCC[C@@H]1C[C@@H](C(=O)N[C@@H]([C@H]2O[C@H](SC)[C@H](O)[C@@H](O)[C@H]2O)[C@H](C)Cl)N(C)C1"
  meas-value: "> 2 µg/mL"
- entry-smiles: "C[C@H]1COc2c(N3CCN(C)CC3)c(F)cc3c(=O)c(C(=O)O)cn1c23"
  meas-value: "> 4 µg/mL"

---

system: susceptible Staphylococcus aureus (MSSA); assay: In vitro activity (MIC) against susceptible Staphylococcus aureus (MSSA) strains collected in 2005; format: cell-based; details: Europe 2005, 1,044 strains
measured-attribute: MIC90

- entry-smiles: "CN[C@H](CC(C)C)C(=O)N[C@H]1C(=O)N[C@@H](CC(N)=O)C(=O)N[C@H]2C(=O)N[C@H]3C(=O)N[C@H](C(=O)N[C@H](C(=O)O)c4cc(O)cc(O)c4-c4cc3ccc4O)[C@H](O)c3ccc(c(Cl)c3)Oc3cc2cc(c3O[C@@H]2O[C@H](CO)[C@@H](O)[C@H](O)[C@H]2O[C@H]2C[C@](C)(N)[C@H](O)[C@H](C)O2)Oc2ccc(cc2Cl)[C@H]1O"
  target: "susceptible Staphylococcus aureus (MSSA)"
  meas-value: "1 µg/mL"
- entry-smiles: "O=C(N[C@H](CO)[C@H](O)c1ccc([N+](=O)[O-])cc1)C(Cl)Cl"
  target: "susceptible Staphylococcus aureus (MSSA)"
  meas-value: "8 µg/mL"
- entry-smiles: "CC[C@H]1OC(=O)[C@H](C)[C@@H](O[C@H]2C[C@@](C)(OC)[C@@H](O)[C@H](C)O2)[C@H](C)[C@@H](O[C@@H]2O[C@H](C)C[C@H](N(C)C)[C@H]2O)[C@](C)(O)C[C@@H](C)C(=O)[C@H](C)[C@@H](O)[C@]1(C)O"
  target: "susceptible Staphylococcus aureus (MSSA)"
  meas-value: ">8 µg/mL"

---

system: MRSA; experiment: In vitro activity (MIC) against MRSA strains collected in 2005; format: cell-based, Staphylococcus aureus; settings: North America 2005, 1,158 strains; CLSI (2007) criteria

- entry-smiles: "CN[C@H](CC(C)C)C(=O)N[C@H]1C(=O)N[C@@H](CC(N)=O)C(=O)N[C@H]2C(=O)N[C@H]3C(=O)N[C@H](C(=O)N[C@H](C(=O)O)c4cc(O)cc(O)c4-c4cc3ccc4O)[C@H](O)c3ccc(c(Cl)c3)Oc3cc2cc(c3O[C@@H]2O[C@H](CO)[C@@H](O)[C@H](O)[C@H]2O[C@H]2C[C@](C)(N)[C@H](O)[C@H](C)O2)Oc2ccc(cc2Cl)[C@H]1O"
  target: "MRSA"
  % susceptible (%): 100
- entry-smiles: "CN(C)[C@@H]1C(O)=C(C(N)=O)C(=O)[C@@]2(O)C(O)=C3C(=O)c4c(O)cccc4[C@@](C)(O)[C@H]3C[C@@H]12"
  target: "MRSA"
  % susceptible (%): 92.5
- entry-smiles: "CCC[C@@H]1C[C@@H](C(=O)N[C@@H]([C@H]2O[C@H](SC)[C@H](O)[C@@H](O)[C@H]2O)[C@H](C)Cl)N(C)C1"
  target: "MRSA"
  % susceptible (%): 55.5
- entry-smiles: "C[C@H]1COc2c(N3CCN(C)CC3)c(F)cc3c(=O)c(C(=O)O)cn1c23"
  target: "MRSA"
  % susceptible (%): 26.4
- entry-smiles: "CC[C@H]1OC(=O)[C@H](C)[C@@H](O[C@H]2C[C@@](C)(OC)[C@@H](O)[C@H](C)O2)[C@H](C)[C@@H](O[C@@H]2O[C@H](C)C[C@H](N(C)C)[C@H]2O)[C@](C)(O)C[C@@H](C)C(=O)[C@H](C)[C@@H](O)[C@]1(C)O"
  target: "MRSA"
  % susceptible (%): 4.8
- entry-smiles: "O=C(N[C@H](CO)[C@H](O)c1ccc([N+](=O)[O-])cc1)C(Cl)Cl"
  target: "MRSA"
  % susceptible (%): 92.3

---

system: susceptible Staphylococcus aureus (MSSA); experiment: In vitro activity (MIC) against susceptible Staphylococcus aureus (MSSA) strains collected in 2005; assay type: cell-based; conditions: Europe 2005, 1,044 strains; CLSI (2007) criteria

- entry-smiles: "C[C@H]1COc2c(N3CCN(C)CC3)c(F)cc3c(=O)c(C(=O)O)cn1c23"
  % resistance, %: 6.8
- entry-smiles: "CC[C@H]1OC(=O)[C@H](C)[C@@H](O[C@H]2C[C@@](C)(OC)[C@@H](O)[C@H](C)O2)[C@H](C)[C@@H](O[C@@H]2O[C@H](C)C[C@H](N(C)C)[C@H]2O)[C@](C)(O)C[C@@H](C)C(=O)[C@H](C)[C@@H](O)[C@]1(C)O"
  % resistance, %: 13.3
- entry-smiles: "O=C(N[C@H](CO)[C@H](O)c1ccc([N+](=O)[O-])cc1)C(Cl)Cl"
  % resistance, %: 1.4

---

Recorded MIC50 values for a group of compounds are listed next.
system: susceptible Staphylococcus aureus (MSSA); experiment: In vitro activity (MIC) against susceptible Staphylococcus aureus (MSSA) strains collected in 2005; format: cell-based; details: North America 2005, 1,232 strains
measured-attribute: MIC50 (mg/L)

- entry-smiles: "O=C(N[C@H](CO)[C@H](O)c1ccc([N+](=O)[O-])cc1)C(Cl)Cl"
  measured-attribute: "MIC50"
  unit-symbol: "mg/L"
  meas-value: 8
- entry-smiles: "CN[C@H](CC(C)C)C(=O)N[C@H]1C(=O)N[C@@H](CC(N)=O)C(=O)N[C@H]2C(=O)N[C@H]3C(=O)N[C@H](C(=O)N[C@H](C(=O)O)c4cc(O)cc(O)c4-c4cc3ccc4O)[C@H](O)c3ccc(c(Cl)c3)Oc3cc2cc(c3O[C@@H]2O[C@H](CO)[C@@H](O)[C@H](O)[C@H]2O[C@H]2C[C@](C)(N)[C@H](O)[C@H](C)O2)Oc2ccc(cc2Cl)[C@H]1O"
  measured-attribute: "MIC50"
  unit-symbol: "mg/L"
  meas-value: 1

---

test system: susceptible Staphylococcus aureus (MSSA); assay: In vitro activity (MIC) against susceptible Staphylococcus aureus (MSSA) strains collected in 2005; assay type: cell-based; conditions: Europe 2005, 1,044 strains; CLSI (2007) criteria
Recorded % resistance values for a group of molecules are listed next.

- entry-smiles: "CCC[C@@H]1C[C@@H](C(=O)N[C@@H]([C@H]2O[C@H](SC)[C@H](O)[C@@H](O)[C@H]2O)[C@H](C)Cl)N(C)C1"
  unit-symbol: "%"
  % resistance: 3.2
- entry-smiles: "CN(C)[C@@H]1C(O)=C(C(N)=O)C(=O)[C@@]2(O)C(O)=C3C(=O)c4c(O)cccc4[C@@](C)(O)[C@H]3C[C@@H]12"
  unit-symbol: "%"
  % resistance: 6.5
- entry-smiles: "CN[C@H](CC(C)C)C(=O)N[C@H]1C(=O)N[C@@H](CC(N)=O)C(=O)N[C@H]2C(=O)N[C@H]3C(=O)N[C@H](C(=O)N[C@H](C(=O)O)c4cc(O)cc(O)c4-c4cc3ccc4O)[C@H](O)c3ccc(c(Cl)c3)Oc3cc2cc(c3O[C@@H]2O[C@H](CO)[C@@H](O)[C@H](O)[C@H]2O[C@H]2C[C@](C)(N)[C@H](O)[C@H](C)O2)Oc2ccc(cc2Cl)[C@H]1O"
  unit-symbol: "%"
  % resistance: 0.0
